Test system: Staphylococcus aureus
Experiment: Antimicrobial activity against Staphylococcus aureus ATCC 6538 by MTT assay
Type: functional
OBSERVED PROPERTY: MIC (µg/mL)

MOLECULE	OBSERVED PROPERTY	NUMERIC RESULT
CC(=O)N1N=C(c2ccc(Br)cc2)CC1c1ccc(Br)cc1 (stereo unspecified)	MIC	3.12
COc1ccc(C2=NN(C(C)=O)C(c3ccc(OC)cc3)C2)cc1 (stereo unspecified)	MIC	6.25
COc1ccc(C2CC(c3ccc(Cl)c(Cl)c3)=NN2C(C)=O)cc1 (stereo unspecified)	MIC	25
COc1cc(OC)cc(C2CC(c3ccccc3F)=NN2C(C)=O)c1 (stereo unspecified)	MIC	25

I: CC(=O)N1N=C(c2ccc(C)c(C)c2)CC1c1ccc(Br)cc1 (stereo unspecified)
II: CC(=O)N1N=C(c2ccc(C)c(C)c2)CC1c1ccc(Cl)cc1 (stereo unspecified)
Incoming: Between I and II , whose measured MIC reads higher? Please respond with the label that marks your chosen entry.
Outgoing: I
